Provide the reported Z.CTG of each item.
- System: ISC-enriched organoids
- MEASUREMENT PROTOCOL: Primary screen, 384-well 2.5-D organoid differentiation (ENR+CD, 6 days, Target Selective Inhibitor Library, vs whole-plate median): ATP (CellTiter-Glo 3D, CTG)
- TEST CONTEXT: Dose 0.40 uM; primary screen, standard z score
Counter-ions that a name gives are not always drawn.
The answer should be written as a number, with no unit following it.

*Q* Read off the recorded Z.CTG for `Cc1ccc(NCCCc2ccccc2)c(N)c1`
*A* 0.548

*Q* Return reported Z.CTG. Input compound: Cc1ccc(NC(=O)c2ccc(CN3CCN(C)CC3)cc2)cc1Nc1nccc(-c2cccnc2)n1 [Imatinib (STI571)]
*A* 0.188

*Q* Query Z.CTG for `Oc1ccc2ccccc2c1SSc1c(O)ccc2ccccc12`
*A* −0.793

*Q* Consider the compound CCc1c2c(nc3ccc(OC(=O)N4CCC(N5CCCCC5)CC4)cc13)-c1cc3c(c(=O)n1C2)COC(=O)[C@]3(O)CC [Irinotecan HCl Trihydrate] and give its recorded Z.CTG.
*A* −0.491

Taken from patent US20230398130A1.
